test: NCI Yeast Anticancer Drug Screen. Data for the cln2 rad14 strain (AID 165);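 also: 0% = growth equal to vehicle treated cultures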; details: S. cerevisiae cln2 rad14 strain; at 50.0 µM unless noted
This is part of a sample that, as a whole, favours compounds with a hit. Of some 79,000 tested, about 15% had one in any assay. Calls of active or inactive are those of the source. Rule as the data show it: active = growth inhibition above about 70%; inactive = the rest.
Answer with one of the outcomes true (1) for active, false (0) for inactive

Input line: Kindly provide the recorded test outcome for the following compound: `CC1=N[C@@H](C(=O)NCC(N)=O)Cc2c1[nH]c1ccccc21`
Output line: false (0)

Input line: Kindly provide the recorded test outcome for the following compound: `Cc1nnc(-n2cccc2)s1`
Output line: false (0)

Input line: Kindly provide the recorded test outcome for the following compound: `CC(=O)Nc1cc(C(=O)Nc2cc(C(=O)Nc3cc(C(=O)Nc4cc(C(=O)Nc5cc(C(=O)NCCC(=O)NCCCN(C)C)n(C)c5)n(C)c4)n(C)c3)n(C)c2)n(C)c1`
Output line: false (0)

Input line: Kindly provide the recorded test outcome for the following compound: CC1CC(C)(O)C2C3(C)CCCC2(COC3=O)C12CCC1(CCOC1=O)O2 (stereo not given)
Output line: false (0)

Input line: Kindly provide the recorded test outcome for the following compound: `CCN(CC)c1ccc(N=Nc2ccc(-c3nc4cccnc4o3)cc2)cc1`
Output line: false (0)

Input line: Kindly provide the recorded test outcome for the following compound: `CC(C)OC(=O)Oc1cccc(OC(=O)OC(C)C)c1`
Output line: false (0)

Input line: Kindly provide the recorded test outcome for the following compound: `O=C1CCCC2CCCC(=O)N12`
Output line: false (0)

Input line: Kindly provide the recorded test outcome for the following compound: `CC(=O)C1=CCCCC1`
Output line: false (0)

Input line: Kindly provide the recorded test outcome for the following compound: `Cc1[nH]nc2c1C(=O)C=C(N(CCO)c1ccccc1)C2=O`
Output line: false (0)

Input line: Kindly provide the recorded test outcome for the following compound: `CCOC(=O)c1[nH]c(C)c(/C=N/O)c1C`
Output line: false (0)

Input line: Kindly provide the recorded test outcome for the following compound: `c1ccc(NN=Nc2ncnc3nc[nH]c23)cc1`
Output line: false (0)

Input line: Kindly provide the recorded test outcome for the following compound: `CCCc1[nH]n(-c2ccccc2)c(=O)c1N=Nc1cccc(C(F)(F)F)c1`
Output line: false (0)

Input line: Kindly provide the recorded test outcome for the following compound: `CC(C)=Nn1cnc2c1NC(C)(C)N=C2C(N)=O`
Output line: false (0)

Input line: Kindly provide the recorded test outcome for the following compound: `C=C(C)C(C(=O)OCC)C(=O)OCC`
Output line: false (0)

Input line: Kindly provide the recorded test outcome for the following compound: `CC(=O)/C=C/N1CCOCC1`
Output line: false (0)

Input line: Kindly provide the recorded test outcome for the following compound: `C/C(=C/CC1=C(O)c2ccccc2C(=O)C1=O)CO`
Output line: false (0)

Input line: Kindly provide the recorded test outcome for the following compound: `c1ccc2c(c1)Cc1cc3ccccc3cc1C2`
Output line: false (0)

Input line: Kindly provide the recorded test outcome for the following compound: `Cc1cc(C)c(S)c(C)c1.[Cu+2]`
Output line: false (0)

Input line: Kindly provide the recorded test outcome for the following compound: Cn1c2c(c(=O)c3cc(O)ccc31)CC(O)C(C)(C)O2 (stereo not given)
Output line: false (0)

Input line: Kindly provide the recorded test outcome for the following compound: `O=C1c2ccccc2C(=O)N1CCCCCCS(=O)(=O)Cl`
Output line: false (0)

Input line: Kindly provide the recorded test outcome for the following compound: `N#Cc1ccc2c(c1)-c1cc(C#N)ccc1C2c1ccccc1`
Output line: false (0)

Input line: Kindly provide the recorded test outcome for the following compound: COC(=O)C(=O)C1CCCC(C)(c2ccccc2)C1 (stereo not given)
Output line: false (0)

Input line: Kindly provide the recorded test outcome for the following compound: `CC(=O)CC(=O)Nc1nc2ccccc2s1`
Output line: false (0)

Input line: Kindly provide the recorded test outcome for the following compound: `O=C(Cc1ccccc1)NCCCN(CCCCN(CCCNC(=O)Cc1ccccc1)C(=O)OCc1ccccc1)C(=O)OCc1ccccc1`
Output line: false (0)

Input line: Kindly provide the recorded test outcome for the following compound: `CNS(=O)(=O)c1ccc(C)c(C)c1`
Output line: false (0)

Input line: Kindly provide the recorded test outcome for the following compound: `Nc1ccc(S(=O)[O-])cc1.Nc1ccc(S(=O)[O-])cc1.[Zn+2]`
Output line: false (0)

Input line: Kindly provide the recorded test outcome for the following compound: CSC(=S)OC(C)CC(C)C (stereo not given)
Output line: false (0)

Input line: Kindly provide the recorded test outcome for the following compound: `COc1ccc(-c2oc(=O)cc(-c3ccccc3)c2-c2ccccc2)cc1`
Output line: false (0)

Input line: Kindly provide the recorded test outcome for the following compound: `CCCSc1nn2cc(NC(=O)OC)nc2s1`
Output line: false (0)

Input line: Kindly provide the recorded test outcome for the following compound: CN1CC(c2ccccc2)C(O)(C2(c3ccccc3)CN(C)CC(c3ccccc3)C2=O)C(c2ccccc2)C1 (stereo not given)
Output line: false (0)

Input line: Kindly provide the recorded test outcome for the following compound: `NCCCCCCCCCCN`
Output line: false (0)

Input line: Kindly provide the recorded test outcome for the following compound: `O=C(O)Cc1cc2c(cc1I)OCO2`
Output line: false (0)

Input line: Kindly provide the recorded test outcome for the following compound: `Cc1nc(SCC(=O)Nc2ccccc2)c2sc(=S)n(-c3ccccc3)c2n1`
Output line: false (0)

Input line: Kindly provide the recorded test outcome for the following compound: CC(C#N)C(=O)O (stereo not given)
Output line: false (0)

Input line: Kindly provide the recorded test outcome for the following compound: CC(=O)NC(C(=O)O)C(C)C (stereo not given)
Output line: false (0)

Input line: Kindly provide the recorded test outcome for the following compound: `CCCCOP(=O)(Nc1ccc([N+](=O)[O-])cc1)OCCCC`
Output line: true (1)

Input line: Kindly provide the recorded test outcome for the following compound: `O=c1[nH]cnc2nc(N3CCOCC3)sc12`
Output line: false (0)

Input line: Kindly provide the recorded test outcome for the following compound: `CCOc1cc(OCC)c2c(c1)C(=O)OC2=O`
Output line: false (0)

Input line: Kindly provide the recorded test outcome for the following compound: `CCN(CC)CCNC(=O)c1ccc(I)cc1`
Output line: false (0)

Input line: Kindly provide the recorded test outcome for the following compound: `Cc1cc(N(CCC#N)CCC#N)ccc1/C=N/NC(=O)c1ccccc1`
Output line: false (0)

Input line: Kindly provide the recorded test outcome for the following compound: `CC1=Nc2cc(Cl)c(Cl)cc2N(C)/C1=C/C1=C(Cl)C(=O)c2cc3c(Cl)ccc(Cl)c3cc2C1=O`
Output line: false (0)

Input line: Kindly provide the recorded test outcome for the following compound: `CCOC(=O)c1nnsc1N/N=C\c1ccc([N+](=O)[O-])cc1`
Output line: false (0)

Input line: Kindly provide the recorded test outcome for the following compound: `CC/C=C/C(CC)(C(=O)OCC)C(=O)OCC`
Output line: false (0)

Input line: Kindly provide the recorded test outcome for the following compound: Cc1ccc(/C=C/C(=O)C(C)CN(C)C)cc1C (stereo not given)
Output line: false (0)

Input line: Kindly provide the recorded test outcome for the following compound: `CC(C)(CBr)CC(=O)NC1CCCCC1`
Output line: false (0)

Input line: Kindly provide the recorded test outcome for the following compound: `COc1ccc(C)cc1Sc1ccc([N+](=O)[O-])cc1C`
Output line: false (0)

Input line: Kindly provide the recorded test outcome for the following compound: `CCC(=O)NC(Nc1ccccc1F)(C(F)(F)F)C(F)(F)F`
Output line: false (0)

Input line: Kindly provide the recorded test outcome for the following compound: `ClCCN1CCOC1=Nc1ccc2c(c1)CCCC2`
Output line: false (0)

Input line: Kindly provide the recorded test outcome for the following compound: `N#CC1=C(NC(N)=O)CCCC1`
Output line: false (0)

Input line: Kindly provide the recorded test outcome for the following compound: `COc1c(OC(C)=O)ccc(/C=C2\N=C(C)OC2=O)c1[N+](=O)[O-]`
Output line: false (0)
